Listing of recorded IC50 by entry.
# system_tested: HK853 (Thermotoga maritima)
# Sequence (Q9WZV7 232-489): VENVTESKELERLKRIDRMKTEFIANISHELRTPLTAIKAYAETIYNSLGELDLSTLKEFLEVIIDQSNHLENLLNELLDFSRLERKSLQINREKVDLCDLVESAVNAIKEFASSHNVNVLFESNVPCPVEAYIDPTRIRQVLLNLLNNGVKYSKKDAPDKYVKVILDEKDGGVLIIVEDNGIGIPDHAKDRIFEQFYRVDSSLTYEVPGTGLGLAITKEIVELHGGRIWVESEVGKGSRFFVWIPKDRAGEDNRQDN
# experiment: Control FP competition
# Format: binding
Provide the reading as a plain figure in µM.

Nc1ncnc2c1ncn2[C@@H]1O[C@H](COP(=O)(O)OP(=O)(O)O)[C@@H](O)[C@H]1O [ADP (3), adenosine diphosphate] = 27.7

Let us move to another entry and its IC50.
# input Need IC50 of Nc1ncnc2c1ncn2[C@@H]1O[C@H](COP(=O)(O)OP(=O)(O)OP(=O)(O)O)[C@@H](O)[C@H]1O [ATP (2), adenosine triphosphate] , thanks.
# output 23

* * *

Sequence of the target: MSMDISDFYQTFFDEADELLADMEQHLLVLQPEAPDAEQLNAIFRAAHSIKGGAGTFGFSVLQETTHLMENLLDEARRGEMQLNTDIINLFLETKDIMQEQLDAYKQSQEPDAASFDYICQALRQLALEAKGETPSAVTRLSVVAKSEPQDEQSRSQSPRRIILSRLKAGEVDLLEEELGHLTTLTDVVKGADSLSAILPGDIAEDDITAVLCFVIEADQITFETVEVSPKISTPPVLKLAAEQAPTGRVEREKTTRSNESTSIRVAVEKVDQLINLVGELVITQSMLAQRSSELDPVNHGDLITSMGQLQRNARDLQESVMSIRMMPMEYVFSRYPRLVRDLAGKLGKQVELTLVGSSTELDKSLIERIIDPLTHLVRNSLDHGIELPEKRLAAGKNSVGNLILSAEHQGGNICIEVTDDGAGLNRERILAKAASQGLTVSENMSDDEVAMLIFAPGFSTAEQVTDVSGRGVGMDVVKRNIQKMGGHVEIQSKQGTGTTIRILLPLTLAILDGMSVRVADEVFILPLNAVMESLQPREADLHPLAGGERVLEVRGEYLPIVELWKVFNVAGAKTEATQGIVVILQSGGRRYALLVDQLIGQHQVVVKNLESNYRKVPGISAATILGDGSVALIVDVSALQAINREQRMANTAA
assay_endpoint: pIC50
pIC50 here: minus log base 10 of the concentration, concentration in moles per litre.

Nc1ncnc2c1ncn2[C@@H]1O[C@H](COP(=O)(O)OP(=O)(O)O)[C@@H](O)[C@H]1O [ADP (3), adenosine diphosphate] = 4.67

Now take the following molecule into account.
# input Name the recorded pIC50 for Nc1nc2ccc(OC(F)(F)F)cc2s1 [Compound 12, riluzole] .
# output 2.87

* * *

Recorded pIC50 values for a group of compounds are listed next.
# system_tested: HK853 (Thermotoga maritima, UniProt Q9WZV7)
# experiment: Inhibition of HK853 autophosphorylation activity
# Assay type: biochemical
Scale explanation: pIC50 corresponds to minus log10 of a concentration expressed in moles per litre.

Illustrative cases are given below, each with its answer.
Nc1ncnc2nc[nH]c12 = 3.33
Nc1ncnc2c1ncn2[C@@H]1O[C@H](COP(=O)(O)OP(=O)(O)O)[C@@H](O)[C@H]1O [ADP (3), adenosine diphosphate] = 5.59

Attention now turns to another entry.
# input // pIC50 lookup, key: O=c1cc(-c2ccc(O)c(O)c2)oc2cc(O)cc(O)c12
# output 4.82
